Assay: A High-Content qHTS Against Drug Library for the Identification of Small Molecules that Inhibit DYT1 Early Onset Primary Dystonia-Associated Cell Pathology (AID 1645839)
Conditions: HEK293 Flp-In EGFP-delE TorsinA, punctate imaging, 48 h; series mostly up to 46.1 µM
Records with an inconclusive call do not appear. Calls of active or inactive are those of the source. The call rests on the fitted dose curve.
Outcome (select one): 1 for active, 0 for inactive

Query string: Entry `OCCCc1ccccc1` : call = ?
Result string: 0

Query string: Lab log entry: `CCC[C@H](N[C@@H](C)C(=O)N1[C@H](C(=O)O)C[C@@H]2CCCC[C@@H]21)C(=O)OCC` — outcome as called in the assay?
Result string: 0

Query string: // return assay outcome for `Fc1ccc(C(c2ccc(F)cc2)N2CCNCC2)cc1`
Result string: 0

Query string: Please let me know the test result on file for `CCO[C@H](Cc1ccc(OCCc2ccc(OS(C)(=O)=O)cc2)cc1)C(=O)O` .
Result string: 0

Query string: Check the results log: what was the call for `O=C(CCCCCCCCC#CI)Oc1ccccc1` ?
Result string: 0

Query string: Please indicate how the test categorized `O=[N+]([O-])c1nccn1CO[C@@H](CO)[C@H](O)CO` .
Result string: 0

Query string: Look up the recorded call for `CC(C)C(C)(C)C(C)(C)C(C)(C)S` in this test.
Result string: 0

Query string: Query: recorded result category for `C=CCNc1nc(NCC=C)nc(N2CCN(C(c3ccc(F)cc3)c3ccc(F)cc3)CC2)n1` in this test
Result string: 0

Query string: Could you please tell me the result logged for CCC(C(=O)OCCN1CCOC(c2ccccc2)C1C)c1ccccc1 (stereo not given) in this assay?
Result string: 0

Query string: What did this assay record as the result for `CCOc1ccc(NS(=O)(=O)c2ccc(N)cc2)nn1` ?
Result string: 0

Query string: Can you look up the reported call for `COc1cc2c(cc1OC)C(=O)CC2` for me?
Result string: 0

Query string: For CCOC(=O)NNc1ccc(N(CC)CC(C)O)nn1 (stereo not given) , what call appears in the results of this test?
Result string: 0

Query string: Outcome logged for `CC(=O)OC[C@H]1O[C@@H](OC(C)=O)[C@H](OC(C)=O)[C@@H]1OC(C)=O` in this assay:
Result string: 0

Query string: In this assay, the call recorded for `C[C@H](CN1CCCC1)C(=O)c1ccc(C(F)(F)F)cc1` was what?
Result string: 0

Query string: Fill in: this test's call for `Cc1oc(=O)oc1COC(=O)[C@@H]1N2C(=O)[C@@H](NC(=O)[C@H](N)c3ccccc3)[C@H]2SC1(C)C` is ___
Result string: 0

Query string: Which result was noted for this compound in the test: `CN(C)C(=O)CNC(=O)Cc1ccccc1`
Result string: 0

Query string: Would you mind telling me which call this test gave `Cc1cc(C(C)(C)C)c(O)c(C(C)(C)C)c1` ?
Result string: 0

Query string: Tell me the assay call for C[N+]1(CC2COC(c3ccccc3)(c3ccccc3)O2)CCCCC1 (stereo not given) please.
Result string: 0

Query string: Fill in: this test's call for C#CC(C)(CC)OC(=O)c1ccccc1C(=O)O (stereo not given) is ___
Result string: 0

Query string: // outcome(item) with item = `CC(C)(C)c1ccc(O)c(O)c1`
Result string: 1
